Origin of values: PubChem BioAssay (NCI)

# key: entry, value: TGI
- System: SNB-75 CNS
- methodDescription: NCI tumour cell line growth inhibition, 48 h

compound: Cc1noc(C)c1C1=CCCCc2ccccc21
modifierSign: =
TGI / µM: 88.2
//
compound: C[C@]12CCC3c4ccc(O)cc4CCC3C1CC[C@@]2(O)C#Cc1ccc(C#C/C=C\C#Cc2ccccc2N)cc1 (stereo not given in full)
modifierSign: >
TGI / µM: 100
//
compound: CC(C)NCC(O)c1cc(OCc2ccccc2)c(OCc2ccccc2)cc1NC(=O)CCC(=O)O (stereo not given)
modifierSign: =
TGI / µM: 23.9
//
compound: O=C(/C=C/c1ccc(OCCSCCCCCCCCCCSCCOc2ccc(/C=C/C(=O)c3ccc(Cl)cc3)cc2)cc1)c1ccc(Cl)cc1
modifierSign: =
TGI / µM: 63.3
//
compound: O=C1c2ccccc2CCC1C(O)(C(F)(F)F)C(F)(F)F (stereo not given)
modifierSign: >
TGI / µM: 100
